test system: MV-4-11 cells; assay: AML cell viability assay (RealTime-Glo); type: cell-based; settings: Homo sapiens, MV4-11; IC50 class; MV-4-11 cells, RealTime-Glo after 44 hrs of treatment (TABLE 3); read-out: Cell viability classification
Counter-ions that a name gives are not always drawn.
Entries and their measured IC50 follow.
ASSAY_METRIC: IC50

| COMPOUND | TGT | TEST_VALUE |
| --- | --- | --- |
| CCCCCN(CCC1(CN)CCCCC1)c1cccc2c1CN(C1CCC(=O)NC1=O)C2=O (stereo not drawn) [Compound 255] | MV-4-11 cells | 100 to 1000 nM |
| C/C=C/CCN(CCCCN)c1cccc2c1CN(C1CCC(=O)NC1=O)C2=O (stereo not drawn) [Compound 93, hydrochloride] | MV-4-11 cells | < 100 nM |
| CCCCCN(c1cccc2c1CN(C1CCC(=O)NC1=O)C2=O)[C@H]1CC[C@H](NCC(C)C)CC1 (stereo partly drawn) [Compound 311, HCl] | MV-4-11 cells | < 100 nM |
| CC#CCCN(CCCCN)c1cccc2c1CN(C1CCC(=O)NC1=O)C2=O (stereo not drawn) [Compound 95, HCl] | MV-4-11 cells | 100 to 1000 nM |
| N[C@H]1CC[C@H](N(CC2CC2)c2cccc3c2CN(C2CCC(=O)NC2=O)C3=O)CC1 (stereo partly drawn) [Compound 235, hydrochloride] | MV-4-11 cells | < 100 nM |
| N#CCCCN[C@H]1CC[C@H](N(CCC2CC2)c2cccc3c2CN(C2CCC(=O)NC2=O)C3=O)CC1 (stereo partly drawn) [Compound 543] | MV-4-11 cells | < 100 nM |
| N[C@@H]1CC[C@@H](N(CCC2CC2)c2cccc3c2CN(C2CCC(=O)NC2=O)C3=O)C[C@H]1F (stereo partly drawn) [Compound 521, formic acid] | MV-4-11 cells | < 100 nM |
| COC(C)(C)CN[C@H]1CC[C@H](N(CCC2CC2)c2cccc3c2CN(C2CCC(=O)NC2=O)C3=O)CC1 (stereo partly drawn) [Compound 541] | MV-4-11 cells | < 100 nM |
| O=C1CCC(N2Cc3c(cccc3N(CC3CC3)[C@H]3CC[C@H](NC4CC(F)(F)C4)CC3)C2=O)C(=O)N1 (stereo partly drawn) [Compound 532] | MV-4-11 cells | < 100 nM |
| NC[C@H]1CC[C@@H](N(CCC2CC2)c2cccc3c2CN(C2CCC(=O)NC2=O)C3=O)CO1 (stereo partly drawn) [Compound 522] | MV-4-11 cells | < 100 nM |
| O=C1CCC(N2Cc3c(cccc3N(CCC3CC3)[C@H]3CC[C@H](NCCC(F)(F)F)CC3)C2=O)C(=O)N1 (stereo partly drawn) [Compound 516] | MV-4-11 cells | < 100 nM |
| CC(C)(C)CCCN(c1cccc2c1CN(C1CCC(=O)NC1=O)C2=O)[C@H]1CC[C@H](N)CC1 (stereo partly drawn) [Compound 268, HCl] | MV-4-11 cells | < 100 nM |
| O=C1CCC(N2Cc3c(cccc3N(CCCC(F)(F)F)[C@H]3CC[C@H](NC4CC(F)(F)C4)CC3)C2=O)C(=O)N1 (stereo partly drawn) [Compound 512] | MV-4-11 cells | 100 to 1000 nM |
| N[C@H]1CC[C@H](N(CCN2CCNCC2)c2cccc3c2CN(C2CCC(=O)NC2=O)C3=O)CC1 (stereo partly drawn) [Compound 243] | MV-4-11 cells | > 1000 nM |
| CCCCCN(c1cccc2c1CN(C1CCC(=O)NC1=O)C2=O)[C@H]1CC[C@@H](C(=O)NC)CC1 (stereo partly drawn) [Compound 308] | MV-4-11 cells | < 100 nM |
